molecular target: human topoisomerase IIα (Homo sapiens); construct: 300 ng K562 cells nuclear extract, the amount that gave 80% decatenation; endogenous in cells; host or cells: K562 cells nuclear extract; assay: Topoisomerase IIα decatenation inhibition assay; type: biochemical; details: 3 μM; K562 cells nuclear extract, kDNA decatenation; read-out: % Inhibition of topoisomerase II catalytic activity
Sequence (P11388 whole entry): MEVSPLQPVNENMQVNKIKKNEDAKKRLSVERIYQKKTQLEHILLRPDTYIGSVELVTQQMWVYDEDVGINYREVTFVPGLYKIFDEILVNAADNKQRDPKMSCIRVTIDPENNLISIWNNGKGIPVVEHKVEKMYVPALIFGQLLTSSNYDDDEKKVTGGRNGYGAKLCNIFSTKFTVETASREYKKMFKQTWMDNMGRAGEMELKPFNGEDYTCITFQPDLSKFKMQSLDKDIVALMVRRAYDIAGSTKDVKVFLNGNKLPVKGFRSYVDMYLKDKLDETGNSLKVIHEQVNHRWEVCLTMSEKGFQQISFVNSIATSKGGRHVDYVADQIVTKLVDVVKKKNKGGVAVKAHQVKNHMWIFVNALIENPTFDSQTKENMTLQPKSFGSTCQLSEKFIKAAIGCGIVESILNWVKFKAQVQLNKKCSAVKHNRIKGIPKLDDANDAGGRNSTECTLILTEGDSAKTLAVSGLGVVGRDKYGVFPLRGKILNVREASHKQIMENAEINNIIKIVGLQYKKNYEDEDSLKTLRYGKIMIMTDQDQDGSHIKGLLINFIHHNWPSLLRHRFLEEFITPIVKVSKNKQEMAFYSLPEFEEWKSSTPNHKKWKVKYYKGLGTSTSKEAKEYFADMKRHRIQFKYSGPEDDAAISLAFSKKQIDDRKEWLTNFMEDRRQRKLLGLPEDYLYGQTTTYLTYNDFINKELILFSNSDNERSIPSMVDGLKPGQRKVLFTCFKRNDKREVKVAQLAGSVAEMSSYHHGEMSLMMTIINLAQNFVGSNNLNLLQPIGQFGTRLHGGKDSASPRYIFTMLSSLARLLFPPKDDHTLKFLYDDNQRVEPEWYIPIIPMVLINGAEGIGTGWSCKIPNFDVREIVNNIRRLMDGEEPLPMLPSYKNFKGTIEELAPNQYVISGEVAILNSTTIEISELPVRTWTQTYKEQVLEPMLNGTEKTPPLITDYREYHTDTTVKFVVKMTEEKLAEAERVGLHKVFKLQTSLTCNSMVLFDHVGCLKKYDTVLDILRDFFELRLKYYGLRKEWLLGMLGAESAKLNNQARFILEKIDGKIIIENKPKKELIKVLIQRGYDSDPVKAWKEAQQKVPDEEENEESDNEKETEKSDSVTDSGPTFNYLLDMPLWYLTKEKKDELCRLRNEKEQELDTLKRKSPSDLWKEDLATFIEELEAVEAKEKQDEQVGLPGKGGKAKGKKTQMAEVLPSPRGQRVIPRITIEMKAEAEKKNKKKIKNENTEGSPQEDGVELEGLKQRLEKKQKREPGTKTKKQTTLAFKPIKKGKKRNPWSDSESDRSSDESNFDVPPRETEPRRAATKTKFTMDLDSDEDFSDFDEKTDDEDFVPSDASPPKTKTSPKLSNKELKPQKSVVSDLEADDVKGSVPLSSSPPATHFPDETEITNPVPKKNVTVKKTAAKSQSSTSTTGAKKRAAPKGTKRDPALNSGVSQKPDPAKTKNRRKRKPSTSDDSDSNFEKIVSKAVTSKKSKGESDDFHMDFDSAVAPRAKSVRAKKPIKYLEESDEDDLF
metric-name: inhibition at 3 µM (%)

{"columns": ["compound", "inhibition at 3 µM (%)"],
 "data": [
  ["CCOC(=O)C1=C(c2ccccc2)S(=O)(=O)CCS1(=O)=O", 100],
  ["O=C(Nc1ccccc1)C1=NOCCS1(=O)=O", 100],
  ["CC1=C(COc2ccccc2)S(=O)(=O)CCS1(=O)=O", 100],
  ["O=C(Nc1ccccc1)C1=NOCC[S+]1[O-] (centres unmarked)", 100],
  ["[O-][S+]1CCON=C1c1nnc(-c2cccc(Cl)c2)o1 (centres unmarked)", 80],
  ["O=C(Nc1ccccc1)C1=C(C(F)(F)F)S(=O)(=O)CCS1(=O)=O", 100],
  ["CCOC(=O)C1=C(C(F)(F)F)S(=O)(=O)CCS1(=O)=O", 100],
  ["[O-][S+]1CCON=C1c1sc2ccccc2c1Br (centres unmarked)", 100]
]}

* * *

test system: human leukemia K562 cells; test: K562 cell growth inhibition assay (MTS); type: cell-based; settings: Homo sapiens, K562, 72 h, 72 h incubation, read-out: Median growth inhibitory concentration (IC50) of K562 cells
pIC50: −log10 of the molar value.
metric-name: pIC50

{"columns": ["compound", "target-under-test", "result-number"],
 "data": [
  ["O=C(Nc1ccccc1)C1=NOCCS1(=O)=O", "human leukemia K562 cells", 6.15]
]}

a: CCOC(=O)C1=C(c2ccccc2)S(=O)(=O)CCS1(=O)=O
b: [O-][S+]1CCON=C1c1sc2ccccc2c1Br (stereo not drawn)
Prompt: From the recorded data, which exceeds the other in pIC50: a or b ? When you have decided, please share the label of that item.
Response: b

* * *

target: human topoisomerase IIα (Homo sapiens); construct: 300 ng K562 cells nuclear extract, the amount that gave 80% decatenation; endogenous in cells; host or cells: K562 cells nuclear extract; assay: Topoisomerase IIα decatenation inhibition assay; assay type: biochemical; details: 3 μM; K562 cells nuclear extract, kDNA decatenation
metric-name: % Inhibition of topoisomerase II catalytic activity (%)

Record excerpt, results attached:
{"columns": ["compound", "unit", "result-number"],
 "data": [
  ["COCC1=C(COC)S(=O)(=O)CCS1(=O)=O [compound 23]", "%", 100],
  ["O=S1(=O)CCON=C1C1=Cc2ccccc2S1(=O)=O [compound 15]", "%", 100],
  ["CC1C(C)S(=O)(=O)C(c2ccccc2)=CS1(=O)=O (centres unmarked) [compound 19]", "%", 100],
  ["CC1=C(CS(=O)(=O)c2ccccc2)S(=O)(=O)CCS1(=O)=O [compound 22]", "%", 100],
  ["[O-][S+]1CCON=C1c1cc2ccccc2s1 (centres unmarked) [CMPD #9]", "%", 100],
  ["CCC1CS(=O)(=O)C(c2ccccc2)=C(c2ccccc2)S1(=O)=O (centres unmarked) [compound 16]", "%", 80],
  ["O=S1(=O)CCON=C1c1cc2ccccc2s1 [compound 10]", "%", 100],
  ["CC1C[S+]([O-])C(c2cc3ccccc3s2)=NO1 (centres unmarked) [compound 11]", "%", 100]
]}

P: CCCCC1=C(c2ccccc2)S(=O)(=O)CCS1(=O)=O [compound 18]
Q: CCOC(=O)c1ccc(C2=NOCC[S+]2[O-])s1 (centres unmarked) [compound 7]
Prompt: From the recorded data, which exceeds the other in % Inhibition of topoisomerase II catalytic activity: P or Q ? When you have decided, please share the label of that item.
Response: Q

* * *

target: human topoisomerase IIα (Homo sapiens); construct: 300 ng K562 cells nuclear extract, the amount that gave 80% decatenation; endogenous in cells; host or cells: K562 cells nuclear extract; assay: Topoisomerase IIα decatenation inhibition assay; assay type: biochemical; conditions: 3 μM; K562 cells nuclear extract, kDNA decatenation
metric-name: % Inhibition of topoisomerase II catalytic activity (%)

Record excerpt, results attached:
{"columns": ["compound", "result-number"],
 "data": [
  ["Cc1ccc2sc(C3=NOCC[S+]3[O-])c(C)c2c1 (stereo not shown) [compound 12]", 100],
  ["CC1=C(COc2ccccc2)S(=O)(=O)CCS1(=O)=O [compound 2]", 100]
]}

a: [O-][S+]1CCON=C1c1cc2ccccc2[s+]1[O-] (stereo not shown) [compound 14]
b: CCOC(=O)C1=C(C(=O)OCC)S(=O)(=O)CCS1(=O)=O [compound 1]
Prompt: Looking at recorded values for % Inhibition of topoisomerase II catalytic activity, does a or b come in lower? When you have decided, please share the label of that item.
Response: b

Hey, just so you know, these numbers are from patent US20120142676A1.
